Tested on: LPS-induced nitric oxide (NO) production in RAW 264.7 cells
Test: Nitric oxide production in LPS-stimulated macrophages (Griess)
Type: cell-based, mouse
Conditions: Mus musculus; LPS-stimulated RAW264.7, nitrite 24 h after LPS
// boundary case: IC50 equal to 2000 nM maps to false; strictly smaller maps to true

> print(dat)
                                    molecule    cat
 1  C=C1C(=O)OC2CC3=C[C@@H](C/C(C)=C/C(OC(=O)C(CC)CCCC)[C@H]12)OC3=O (some centres unmarked) [DETD-21]  false
 2  C=C1C(=O)O[C@H]2CC3=C[C@@H](C/C(C)=C/[C@@H](OC(=O)Cc4cccc5ccccc45)[C@H]12)OC3=O [DETD-35]   true
 3  C=C(C)C(=O)O[C@H]1CC2=C[C@@H](C/C(C)=C/[C@H]3OC(=O)[C@@H](CN(C)C)[C@H]13)OC2=O [DETD-1]  false
 4  C=C1C(=O)OC2CC3=C[C@@H](C/C(C)=C/C(OC(=O)/C=C/c4ccco4)[C@H]12)OC3=O (some centres unmarked) [DETD-29]   true
 5  C=C1C(=O)OC2CC3=C[C@@H](C/C(C)=C/C(O)[C@H]12)OC3=O (some centres unmarked) [DETD-3]  false
 6  C=C1C(=O)OC2CC3=C[C@@H](C/C(C)=C/C(OC(=O)Cc4ccccc4)[C@H]12)OC3=O (some centres unmarked) [DETD-43]  false
 7  C=C1C(=O)OC2CC3=C[C@@H](C/C(C)=C/C(OC(=O)c4ccccc4)[C@H]12)OC3=O (some centres unmarked) [DETD-31]  false
 8  C=C1C(=O)OC2CC3=C[C@@H](C/C(C)=C/C(OC(=O)[C@@H](C)c4ccc5cc(OC)ccc5c4)[C@H]12)OC3=O (some centres unmarked) [DETD-53]  false
 9  C=C1C(=O)OC2CC3=C[C@@H](C/C(C)=C/C(OC(=O)Cc4ccc5cc(OC)ccc5c4)[C@H]12)OC3=O (some centres unmarked) [DETD-46]  false
10  C=C1C(=O)OC2CC3=C[C@@H](C/C(C)=C/C(OC(=O)C4CCCCC4)[C@H]12)OC3=O (some centres unmarked) [DETD-38]   true
11  C=C1C(=O)OC2CC3=C[C@@H](C/C(C)=C/C(OC(=O)[C@H](C)c4ccc5cc(OC)ccc5c4)[C@H]12)OC3=O (some centres unmarked) [DETD-54]  false
12  C=C1C(=O)OC2CC3=C[C@@H](C/C(C)=C/C(OC(=O)Cc4cccc5cccnc45)[C@H]12)OC3=O (some centres unmarked) [DETD-52]  false
13  C=C1C(=O)OC2CC3=C[C@@H](C/C(C)=C/C(OC(=O)C=C(C)C)[C@H]12)OC3=O (some centres unmarked) [DETD-8]  false
14  C=C1C(=O)OC2CC3=C[C@@H](C/C(C)=C/C(OC(=O)/C=C/c4ccc(OC)cc4)[C@H]12)OC3=O (some centres unmarked) [DETD-26]   true
15  C=C1C(=O)OC2CC3=C[C@@H](C/C(C)=C/[C@@H](OC(=O)Cc4csc5ccccc45)[C@H]12)OC3=O (some centres unmarked) [DETD-58]  false
16  C=C1C(=O)OC2CC3=C[C@@H](C/C(C)=C/C(OC(=O)/C=C/c4ccc(OC)c(OC)c4)[C@H]12)OC3=O (some centres unmarked) [DETD-49]  false
17  C=C1C(=O)OC2CC3=C[C@@H](C/C(C)=C/[C@@H](OC(=O)/C=C/c4ccc(OCC)cc4)[C@H]12)OC3=O (some centres unmarked) [DETD-60]  false
18  C=C1C(=O)OC2CC3=C[C@@H](C/C(C)=C/C(OC(=O)c4ccc(Br)cc4)[C@H]12)OC3=O (some centres unmarked) [DETD-34]  false
19  C=C1C(=O)OC2CC3=C[C@@H](C/C(C)=C/C(OC(=O)/C=C/c4cccc(OC)c4)[C@H]12)OC3=O (some centres unmarked) [DETD-39]   true
20  C=C1C(=O)OC2CC3=C[C@@H](C/C(C)=C/C(OC(=O)/C=C/C)[C@H]12)OC3=O (some centres unmarked) [DETD-24]  false
21  C=C1C(=O)OC2CC3=C[C@@H](C/C(C)=C/C(OC(=O)c4cc5ccccc5s4)[C@H]12)OC3=O (some centres unmarked) [DETD-41]  false
22  C=C(C)C(=O)OC1/C=C(\C)C[C@@H]2C=C(CC3OC(=O)C(=C)[C@@H]13)C(=O)O2 (some centres unmarked) [DETD-4]  false
23  C=C1C(=O)OC2CC3=C[C@@H](C/C(C)=C/C(OC(=O)/C=C/c4ccc(Cl)cc4)[C@H]12)OC3=O (some centres unmarked) [DETD-28]  false
24  C=C1C(=O)OC2CC3=C[C@@H](C/C(C)=C/C(OC(=O)CC(C)C)[C@H]12)OC3=O (some centres unmarked) [DETD-10]   true
25  C=C1C(=O)OC2CC3=C[C@@H](C/C(C)=C/C(OC(=O)C(CC)CC)[C@H]12)OC3=O (some centres unmarked) [DETD-16]  false
26  C=C1C(=O)OC2CC3=C[C@@H](C/C(C)=C/C(OC(=O)/C=C/c4cccc(C(F)(F)F)c4)[C@H]12)OC3=O (some centres unmarked) [DETD-48]  false
27  C=C1C(=O)OC2CC3=C[C@@H](C/C(C)=C/C(OC(=O)/C=C/c4cccs4)[C@H]12)OC3=O (some centres unmarked) [DETD-42]  false
28  C=C1C(=O)OC2CC3=C[C@@H](C/C(C)=C/C(OC(=O)C=C(C)CCC=C(C)C)[C@H]12)OC3=O (some centres unmarked) [DETD-14]  false

Origin of measurements: patent US10238631B2
